Tested on: Saccharomyces cerevisiae;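 note: PSI is a weighted mean of sequencing reads over stability bins, variants kept only with over 10 reads, mCherry proximal and sfGFP distal, peptide attached via GGGS linker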
experimentNotes: protein stability index of tFT-peptide fusion (C-terminal peptide) (PSI (0-1 scale)); higher = more stable (slower turnover)
reportedConditions: genetic background: doa10 deletion; temperature: 30 C
Assign TRUE to entries whose protein stability index meets or exceeds 0.3; assign FALSE to the rest.

As a guide, the following entries are already answered.
INSERT INTO results (itemsequence, targetundertest, answerlabel) VALUES
  ('LGFHFFFTLIFF', 'Saccharomyces cerevisiae', 'TRUE'),
  ('VLVFYFCFSFCS', 'Saccharomyces cerevisiae', 'FALSE'),
  ('SFFFSFFPYFFC', 'Saccharomyces cerevisiae', 'TRUE'),
  ('APGGRGAAGPSC', 'Saccharomyces cerevisiae', 'TRUE'),
  ('YVQTKKTRYVLV', 'Saccharomyces cerevisiae', 'TRUE');

Hello, I need to know if LFFVCSGVVFSF has measured protein stability index not below 0.3. Thanks! TRUE

Hello, I need to know if SVLVWVFGLFVI has measured protein stability index not below 0.3. Thanks! TRUE

Hello, I need to know if AFFLLVSLLVSP has measured protein stability index not below 0.3. Thanks! FALSE

Hello, I need to know if CVFCRVAVGVDG has measured protein stability index not below 0.3. Thanks! TRUE

Hello, I need to know if VFSRVLSVLLSA has measured protein stability index not below 0.3. Thanks! FALSE

Hello, I need to know if LQSYVSRLVRLS has measured protein stability index not below 0.3. Thanks! FALSE

Hello, I need to know if NENQIKVIMLLV has measured protein stability index not below 0.3. Thanks! FALSE

Hello, I need to know if FGRAVWSRFCIV has measured protein stability index not below 0.3. Thanks! FALSE

Hello, I need to know if VTGFGVAIVCVT has measured protein stability index not below 0.3. Thanks! FALSE

Hello, I need to know if SFWLFSSIGVCF has measured protein stability index not below 0.3. Thanks! TRUE

Hello, I need to know if LSLCPVHRLLVL has measured protein stability index not below 0.3. Thanks! TRUE

Hello, I need to know if LTCTSTPMACRV has measured protein stability index not below 0.3. Thanks! TRUE

Hello, I need to know if FLMCVFFLCFSN has measured protein stability index not below 0.3. Thanks! FALSE
